target.system: Mitogen-activated protein kinase kinase kinase 9 (Homo sapiens)
Sequence (P80192 whole entry, the tested form may be a part): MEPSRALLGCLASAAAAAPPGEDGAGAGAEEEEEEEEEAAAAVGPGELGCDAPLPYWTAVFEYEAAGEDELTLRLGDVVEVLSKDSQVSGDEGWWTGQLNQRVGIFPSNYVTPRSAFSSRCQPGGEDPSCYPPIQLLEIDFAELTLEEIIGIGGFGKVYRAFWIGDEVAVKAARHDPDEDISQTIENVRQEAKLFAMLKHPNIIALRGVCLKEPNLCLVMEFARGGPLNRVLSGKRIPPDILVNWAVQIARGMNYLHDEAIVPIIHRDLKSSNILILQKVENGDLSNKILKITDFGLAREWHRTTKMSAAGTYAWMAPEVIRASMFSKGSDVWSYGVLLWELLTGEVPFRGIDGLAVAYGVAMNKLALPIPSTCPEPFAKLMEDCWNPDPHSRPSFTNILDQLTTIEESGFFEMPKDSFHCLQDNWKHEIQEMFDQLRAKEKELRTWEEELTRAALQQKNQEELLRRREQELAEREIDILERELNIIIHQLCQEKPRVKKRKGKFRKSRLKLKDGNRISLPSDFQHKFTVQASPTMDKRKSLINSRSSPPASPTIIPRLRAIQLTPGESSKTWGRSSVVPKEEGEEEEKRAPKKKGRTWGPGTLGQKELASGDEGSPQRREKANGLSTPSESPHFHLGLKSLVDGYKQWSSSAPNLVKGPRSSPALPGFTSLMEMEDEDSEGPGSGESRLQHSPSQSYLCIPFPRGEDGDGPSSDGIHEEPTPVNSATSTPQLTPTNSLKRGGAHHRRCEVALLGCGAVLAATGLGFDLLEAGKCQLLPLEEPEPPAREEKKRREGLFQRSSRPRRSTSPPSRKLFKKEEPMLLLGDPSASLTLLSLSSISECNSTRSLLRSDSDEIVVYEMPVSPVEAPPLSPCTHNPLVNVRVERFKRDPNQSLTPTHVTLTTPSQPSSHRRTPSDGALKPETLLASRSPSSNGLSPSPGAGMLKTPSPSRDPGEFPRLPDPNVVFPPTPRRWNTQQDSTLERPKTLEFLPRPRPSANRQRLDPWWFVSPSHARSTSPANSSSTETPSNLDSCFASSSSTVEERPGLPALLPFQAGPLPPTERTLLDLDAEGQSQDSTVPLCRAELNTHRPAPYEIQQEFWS
protocol.notes: Inhibition of recombinant human GST-tagged MAP3K9 catalytic domain expressed in baculovirus expression system using serine/threonine-7 peptide as substrate incubated for 60 mins in presence of ATP by Z'-LYTE assay
pIC50: −log10 of the molar value.
measured.metric: pIC50

| smiles | target.system | experimental.result |
| --- | --- | --- |
| C[C@@H]1C[C@H]1C(=O)N1CCN(c2cnc(C#N)c(-c3cnn(C)c3)n2)C[C@H]1C | Mitogen-activated protein kinase kinase kinase 9 (Homo sapiens) | < 4.00 |

----------
target.system: Receptor-type tyrosine-protein kinase FLT3 (Homo sapiens, UniProt P36888, D835Y)
protocol.notes: Inhibition of recombinant human His-tagged FLT3 D835Y mutant cytoplasmic domain expressed in baculovirus expression system after 1 using tyrosine 2 as substrate after 1 hr in presence of ATP by ZYLTE assay

| smiles | IC50 |
| --- | --- |
| C[C@@H]1C[C@H]1C(=O)N1CCN(c2cnc(C#N)c(-c3cnn(C)c3)n2)C[C@H]1C | > 100 µM |
